Answer each item with its documented growth.
# Tested on: HCT-116 colon
# Procedure details: NCI-60 one-dose screen, 48 h (100 = growth as untreated, 0 = no growth, -100 = all killed)
# Measurement context: 10 µM unless noted
The panel holds about 83,000 compounds, 20% with a hit somewhere; the sample as a whole holds those more often. Activity calls are given as the source filed them. Rule for the calls: active = growth percent below 10; inactive = the rest.

In [3]: df
Out[3]:
                                   molecule    test_target  quantity_measured                     result
0  O=[N+]([O-])c1ccccc1Sc1ccccc1[N+](=O)[O-]  HCT-116 colon             growth           94.9% (inactive)
1  O=C(/C=C/c1ccco1)Nc1ncc(Cc2cc(Cl)ccc2Cl)s1  HCT-116 colon             growth           16.3% (inactive)
2  CC1(C)CC[C@]23CC[C@]4(C)[C@H](CC[C@@H]5[C@@]6(C)CCNCC(C)(C)[C@@H]6CC[C@]54C)[C@H]2[C@H]1OC3  HCT-116 colon             growth             55% (inactive)
3  C=CN(C(=O)N1CCN(c2cc3c(cc2F)c(=O)c(C(=O)O)cn3C2CC2)CC1)c1nc(-c2ccc(Cl)cc2)cs1  HCT-116 colon             growth           24.1% (inactive)
4  C#Cc1cccc(NC(=O)C2CCCCN2C(=O)CCl)c1 (stereo not drawn)  HCT-116 colon             growth  -30.7% [8.25 µM] (active)
5  CCOC(=O)CNC1=C(Cl)C(=O)N(Cc2ccc(Cl)cc2)C1=O  HCT-116 colon             growth            102% (inactive)
6  CC(=O)N1N=C(c2ccc(Nc3nc(Nc4ccc(F)cc4)nc(Nc4ccc(F)cc4)n3)cc2)CC1c1ccc(N(C)C)cc1 (stereo not drawn)  HCT-116 colon             growth           43.3% (inactive)
7  C=C1C(=O)O[C@H]2[C@H]1CC/C(COC(=O)NCc1ccc(Cn3c(=O)sn(-c4ccc(I)cc4)c3=O)cc1)=C\CC[C@@]1(C)O[C@@H]21  HCT-116 colon             growth           28.3% (inactive)
8  O=C(NCc1ccc(Cn2c(=O)sn(-c3ccccc3)c2=O)cc1)OCc1ccc2cccc(O)c2n1  HCT-116 colon             growth              -87% (active)
9  CCCCCCCCCCCCCCCCCCOc1ccccc1CC(=O)NCC[N+](C)(C)C  HCT-116 colon             growth           45.2% (inactive)

Give one value of growth per listed molecule.
1. Clc1ccc(Nc2nnc(CNc3ccccc3)c3ccccc23)cc1
2. COc1ccc(/C=N/Nc2c3ccccc3nc3ccccc23)cc1
3. CC(C)=CC(=O)N[C@H]1CC[C@]2(C)C3CC[C@]4(C)C(C(C)N(C)C)=CCC4C3CCC2[C@H]1O (stereo partly drawn)
4. C#CCOc1ccc2nc(CCl)c(Cl)c(Nc3cccc(C(F)(F)F)c3)c2c1
5. COC12C=C/C(=C(/C(=O)OCCSc3ccnn3C)C(=O)CCCCCCCCC3(OC)C=C/C(=C(/C(=O)OCCSc4ccnn4C)C(=O)CCCCCCCC1)O3)O2
6. O=C(Nc1cccnc1Nc1ccccc1)c1cn(Cc2cccc(Oc3ccccc3)c2)nn1

1. 9.94% (active)
2. 97.4% (inactive)
3. 2.25% (active)
4. 64% (inactive)
5. -38.5% (active)
6. 33.1% (inactive)

Give one value of growth per listed molecule.
1. CN(C)CCCn1c2c(c3cnccc3c1=O)C(=O)c1ccccc1-2
2. COc1ccc(N/N=C/c2cn(-c3ccc(C(=O)O)cc3)nc2-c2cc3ccccc3oc2=O)cc1
3. CN1CCOCCN(C)Cc2ccc3ccc(cc3c2)CN(C)CCOCCN(C)Cc2ccc3ccc(cc3c2)C1
4. Cc1c2ccccc2nc2cc3c(cc12)[C@H]1CC[C@]2(C)C(=O)CC[C@H]2[C@@H]1CC3
5. CCCCCCCCn1ccc2cc(NC(=O)CN3CCN(c4cc(C)nc(Cl)n4)CC3)ccc21
6. CN(C)CCn1c(=O)c2ccccc2n2nc3ccccc3c12
7. COCCn1cc(-c2nc(-c3c[nH]c4ncccc34)cs2)c2ccccc21
8. COc1ccc2[nH]cc(-c3nonc3-c3c[nH]c4ccc(Br)cc34)c2c1

1. -12.6% (active)
2. 49.7% (inactive)
3. 28.3% (inactive)
4. 90.2% (inactive)
5. 79.2% (inactive)
6. 71.1% (inactive)
7. 66.5% (inactive)
8. 36.7% (inactive)

* * *

# Test system: UO-31 renal
# Procedure details: NCI-60 one-dose screen, 48 h
# Measurement context: 10 µM unless noted
This is part of a sample that, as a whole, favours compounds with a hit. Of some 83,000 tested, about 20% had one in any assay. Calls of active or inactive are those of the source. Rule for the calls: active = growth percent below 10; inactive = the rest.
# output must be one of True = active, False = inactive

The following molecules have reported results that may help.
In [3]: df
Out[3]:
                                   molecule  class_assignment
0  O=C(Nc1ccc(Nc2ccncc2)cc1)c1ccc(Nc2ccnc3ccc([N+](=O)[O-])cc23)cc1             False
1        O=c1c2ccccc2n(C[C@H]2CO2)c2ccccc12              True
2  COC(=O)c1ccc2c(c1)c1c(C)c3cnccc3c(C)c1n2C              True
3  O=C1OCC2=C1C(c1ccccc1)c1cc3c(cc1N2CCO)OCCO3 (centres undefined)             False

// param item: CC(C)(Sc1cc(C(C)(C)C)c(O)c(C(C)(C)C)c1)Sc1cc(C(C)(C)C)c(OC(=O)CCC(=O)O)c(C(C)(C)C)c1 ; yields the recorded call
False

// param item: Nc1nc(C(=O)N/N=C/c2ccc(F)cc2)nn1-c1ccc(S(N)(=O)=O)cc1 ; yields the recorded call
False

// param item: C=C(C)[C@@H]1CC[C@]2(C(=O)N3CCNCC3)CC[C@]3(C)[C@H](CC[C@@H]4[C@@](C)(CCC(=O)N5CCNCC5)[C@H](C(=C)C)CC[C@]43C)[C@@H]12 ; yields the recorded call
False

// param item: Cc1cccc(-c2nc(C(C)C)sc2-c2ccnc(NCCCNS(=O)(=O)c3ccc(Cl)cc3)c2)c1 ; yields the recorded call
False

// param item: CC(C)Cc1nc(Nc2ccccc2)[nH]c(=O)c1C#N ; yields the recorded call
False

// param item: CN(C)c1ccc([C@@H](C(=O)Nc2cccc([N+](=O)[O-])c2)N(C(=O)c2cc3ccccc3[nH]2)c2cccc([N+](=O)[O-])c2)cc1 ; yields the recorded call
False

// param item: CC(C)=CC(=O)N[C@H]1CC[C@]2(C)C3CC[C@]4(C)C(C(C)N(C)C)=CCC4C3CCC2[C@H]1O (some centres undefined) ; yields the recorded call
True

// param item: Cc1ccc(C2CC(c3cccc(Nc4ccncc4)c3)=Nc3c(N)nc(N)nc3N2)cc1 (centres undefined) ; yields the recorded call
False

// param item: COC(=O)c1c(C)nc(C)c2c1C(=O)C=C(NCc1ccccc1)C2=O ; yields the recorded call
False

// param item: CCOC(=O)c1c(C)nc2ccccc2c1/C=C/c1ccc(F)cc1 ; yields the recorded call
False

// param item: O=C(Nc1cccnc1Nc1ccccc1)c1cn(Cc2cccc(Oc3ccccc3)c2)nn1 ; yields the recorded call
False

// param item: Nc1cc(-c2ccc(Cl)cc2)nn1-c1nnc(/C=C/c2ccco2)c(=O)[nH]1 ; yields the recorded call
True

// param item: CN(C)c1ccc(C(=S)c2ccc(N(C)C)cc2)cc1 ; yields the recorded call
False

// param item: CCn1cc(C(=O)N/N=C/c2ccccc2)c(=O)c2cc(F)c(N3CCNC(C)C3)c(F)c21 (centres undefined) ; yields the recorded call
False

// param item: O=S(O)c1cc(Cl)cc(Cl)c1OCc1ccccc1 ; yields the recorded call
False

* * *

Answer each item with its documented growth.
# Test system: SN12C renal
# Procedure details: NCI-60 one-dose screen, 48 h (100 = growth as untreated, 0 = no growth, -100 = all killed)
# Measurement context: 10 µM unless noted
Compounds without any hit were thinned out: in the full panel of roughly 83,000, 20% have a hit.
Numbers only, in %.

Example molecules with recorded growth:
In [3]: df
Out[3]:
                                   molecule  readout_units  quantitative_readout
0  COCCn1cc(-c2csc(-c3c[nH]c4ccc(F)cc34)n2)c2cccnc21              %                  66.7
1    NC(=O)c1ccccc1OCC(=O)Nc1ccc(Cl)c(Cl)c1              %                   101
2  CCN(CC)CCN1C(=O)c2c(c3c4ccccc4[nH]c3c3ccc4ccccc4c23)C1=O              %                 -89.2
3  COC(=O)[C@]1(C)CCC[C@]2(C)[C@H]3C[C@@H]4[C@H]5[C@@H]6CC/C(=N\OCC/C(N)=N/O)[C@H]5[C@@]3(CC[C@H]21)CC4(C(C)C)O6              %                  63.4
4          Cc1ccccc1N1CCN(C(=S)c2ccccc2)CC1              %                  96.6
5  COc1cc(C[C@H]2COc3cc(O)cc(O)c3C2=O)ccc1O              %                  40.9
6  Cc1nc2sc(C(=O)Nc3ccccn3)c(N)c2cc1C(C)O (stereo not given)              %                  93.7
7  CC1=C2CC/C(C)=C/CC[C@]3(C)O[C@H]3CC/C(C)=C/[C@H]2OC1              %                  95.5
8  O=C(c1ccc(Br)cc1)C(Br)C(c1ccc(Cl)cc1)C(c1ccccc1)[N+](=O)[O-] (stereo not given)              %                   101
9  O=C(NCCCCO)c1cncnc1Nc1ccc2c(ccn2Cc2cccc(F)c2)c1              %                  87.7

Give one value of growth per listed molecule.
1. Clc1ccc(Nc2nnc(CNc3ccccc3)c3ccccc23)cc1
2. COC(=O)c1ccc2cc(OC)c(OC)cc2c1
3. COc1ccc2c(c1)CC[C@@H]1[C@@H]2CC[C@]2(C)c3c(cc(C#N)c4c3sc3ccccc34)C[C@@H]12
4. CC(=O)c1c(Nc2cccc(F)c2)[nH]c2c(Cl)cc(Cl)c(Cl)c2c1=O
5. COc1ccc(Nc2ncc(I)c(NCCCNC(=O)C3CCC3)n2)cc1
6. COCCOC(C)C(/C=N/NC(N)=S)=N/NC(N)=S (stereo not given)
7. COc1ccc(-c2cc(C(=O)N3N=C(c4ccc(N)cc4)CC3c3ccc(Cl)cc3)c3cc(OC)ccc3n2)cc1 (stereo not given)
8. COc1ccccc1/C=C/C(=O)Nc1ccc(F)cc1

1: 28.9; 2: 104; 3: 104; 4: -0.0775; 5: 19.8; 6: 76.5; 7: 84.5; 8: 111

Give one value of growth per listed molecule.
1. COc1cc(/C=C2\C(=O)N(CCCOc3cc(O)c4c(=O)cc(-c5ccccc5)oc4c3)c3ccccc32)cc(OC)c1O
2. COc1ccc(N=C2NN=C(c3c[nH]c4ccccc34)CS2)cc1OC

91.3
70.7
